assay: Binding affinity to AT1 in rabbit aorta; type: tissue-based, Oryctolagus cuniculus
pIC50: −log10 of the molar value.
pIC50 values for the compounds below.

COMPOUND_STRUCTURE_STRING	INEQUALITY_OPERATOR	pIC50
CCCCc1nc2ccc(OC)cc2c(=O)n1Cc1ccc(-c2ccccc2-c2nn[nH]n2)cc1	≤	8.89
CCCCc1nc2cc(C)ccc2c(=O)n1Cc1ccc(-c2ccccc2C(=O)O)cc1	=	6.43
CCCCc1nc2ccc(F)cc2c(=O)n1Cc1ccc(-c2ccccc2-c2nn[nH]n2)cc1	≤	8.89
CCCCC(=O)Nc1ccc2nc(CCCC)n(Cc3ccc(-c4ccccc4-c4nn[nH]n4)cc3)c(=O)c2c1	≤	8.89
CCCc1nc2ccc(C)cc2c(=O)n1Cc1ccc(-c2ccccc2-c2nn[nH]n2)cc1	≤	8.89
CCCCc1nc2cccc(C)c2c(=O)n1Cc1ccc(-c2ccccc2C(=O)O)cc1	=	6.43
CCCCc1nc2ccccc2c(=O)n1Cc1ccc(-c2ccccc2C(=O)O)cc1	=	7.04
CCCCc1nc2c(C)cccc2c(=O)n1Cc1ccc(-c2ccccc2C(=O)O)cc1	=	6.43
CCCCc1nc2ccc([N+](=O)[O-])cc2c(=O)n1Cc1ccc(-c2ccccc2-c2nn[nH]n2)cc1	≤	8.89

###

system: Cytomegalovirus; assay: Antiviral activity against Cytomegalovirus; conditions: Human betaherpesvirus 5

COMPOUND_STRUCTURE_STRING	EXPERIMENTAL_TARGET	EC50 [µM]
Nc1nc2c(ncn2COC(CO)CO)c(=O)[nH]1	Cytomegalovirus	2.6

###

tested on: Rattus norvegicus; assay: Anticonvulsant activity in rat at 50 mg/kg, ip measured after 1 hrs by MES test relative to control; type: functional
We use 40% as the dividing line for Activity: on or above the line is label 1, below is label 0.

COMPOUND	CLASS_LABEL
O=C1N=C([O-])NC1(c1ccccc1)c1ccccc1.[Na+] [PHENYTOIN SODIUM]	label 1
CCOC(=O)CNn1c(C)nc2c(Br)cc(Br)cc2c1=O	label 0
Cc1nc2c(Br)cc(Br)cc2c(=O)n1NCc1nnc(NCC2C(=O)NC(=S)NC2=O)s1	label 1
CCOC(=O)CNn1c(C)nc2ccc(I)cc2c1=O	label 0
CCOC(=O)CNn1c(C)nc2ccc(Br)cc2c1=O	label 0
Cc1nc2ccc(Br)cc2c(=O)n1NCc1nnc(NCC2C(=O)NC(=O)NC2=O)s1	label 1
Cc1nc2ccccc2c(=O)n1NCC(=O)NNC(N)=S	label 0
Cc1nc2c(Br)cc(Br)cc2c(=O)n1NCc1nnc(NCC2C(=O)NC(=O)NC2=O)s1	label 1
CCCC(CCC)C(=O)[O-].[Na+] [VALPROATE SODIUM]	label 1
CCOC(=O)CNn1c(C)nc2ccccc2c1=O	label 0
Cc1nc2ccc(I)cc2c(=O)n1NCc1nnc(NCC2C(=O)NC(=S)NC2=O)s1	label 1

###

species: Mus musculus; assay: Sedative hypnotic activity in mouse; format: functional; set-up: concentration or dose not given beside the values

MOLECULE	Activity (%)
Cc1cccc(-n2c(=O)c3ccccc3n3c(C)nnc23)c1	4
CCCc1nnc2n(-c3cccc(C)c3)c(=O)c3ccccc3n12	4
Cc1cccc(-n2c(=O)c3ccccc3n3c(CCl)nnc23)c1	4
CN(C)CCC(c1ccc(Cl)cc1)c1ccccn1 (stereo unspecified) [CHLORPHENIRAMINE]	25
CCc1nnc2n(-c3cccc(C)c3)c(=O)c3ccccc3n12	4
Cc1cccc(-n2c(=O)c3ccccc3n3cnnc23)c1	4

###

test system: Oryctolagus cuniculus; assay: Antihypertensive activity in po dosed rabbit assessed as decrease in 30mmhg of systolic blood pressure measured after 4 to 6 hrs; format: functional; details: time 4-6 hrs

COMPOUND_STRUCTURE_STRING	ED30, mg/kg
CCOC(=O)c1c(C)cc2nc(COC(=O)NC)n(-c3ccccc3Cl)c(=O)c2c1C	2.8
CCNC(=O)OCc1nc2cc(C)c(C(=O)OCC)c(C)c2c(=O)n1-c1ccccc1Cl	0.35
Clc1cccc(Cl)c1NC1=NCCN1	0.065
CCOC(=O)c1c(C)cc2nc(COC(=O)NC(C)C)n(-c3ccccc3Cl)c(=O)c2c1C	0.42

###

pIC50 listing for selected molecules.
Biological target: Type-2 angiotensin II receptor (Rattus norvegicus, UniProt P35351)
Sequence (P35351 whole entry): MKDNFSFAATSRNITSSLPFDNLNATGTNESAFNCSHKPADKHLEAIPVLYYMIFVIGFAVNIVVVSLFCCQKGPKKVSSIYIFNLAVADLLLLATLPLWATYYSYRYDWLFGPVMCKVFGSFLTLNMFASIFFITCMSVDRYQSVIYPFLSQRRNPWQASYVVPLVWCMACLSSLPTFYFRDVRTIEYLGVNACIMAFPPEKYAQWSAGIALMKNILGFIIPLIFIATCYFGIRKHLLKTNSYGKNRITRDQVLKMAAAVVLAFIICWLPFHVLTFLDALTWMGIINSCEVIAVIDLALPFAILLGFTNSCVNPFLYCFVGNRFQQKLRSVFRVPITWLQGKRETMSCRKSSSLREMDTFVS
pIC50: −log10 of the molar value.
MEASUREMENT_TYPE: pIC50

COMPOUND_STRUCTURE_STRING	RESULT_VALUE
Cc1nc2ccc(N(Cc3ccccc3)C(=O)c3ccccc3)cc2c(=O)n1Cc1ccc(-c2ccccc2-c2nnn[nH]2)cc1	9.66
CCCc1nc2ccc(N(Cc3ccccc3)C(=O)OC(C)(C)C)cc2c(=O)n1Cc1ccc(-c2ccccc2-c2nnn[nH]2)cc1	9.34
CCc1nc2ccc(N(Cc3ccccc3Cl)C(=O)c3ccccc3)cc2c(=O)n1Cc1ccc(-c2ccccc2-c2nn[nH]n2)cc1	9.66
CCc1nc2ccc(N(Cc3ccccc3)C(=O)c3ccncc3)cc2c(=O)n1Cc1ccc(-c2ccccc2-c2nn[nH]n2)cc1	9.66

###

test system: Mus musculus; assay: Analgesic activity in […] albino mouse at 20 mg/kg, po measured after 2 hrs by Tail-Flick technique relative to control; type: functional
MEASUREMENT_TYPE: Activity (%)

COMPOUND	EXPERIMENTAL_TARGET	UNIT_TAG	RESULT_VALUE
O=C([O-])Cc1ccccc1Nc1c(Cl)cccc1Cl.[Na+] [DICLOFENAC SODIUM]	Mus musculus	%	60
CCN(CC)C(=S)Nn1c(SC)nc2ccccc2c1=O	Mus musculus	%	67
CCC(CC)=NNC1=Nc2ccccc2C(=O)C1c1ccccc1 (stereo unspecified)	Mus musculus	%	72
CCC(CC)=NNC1=Nc2ccccc2C(=O)C1c1ccc(OC)cc1 (stereo unspecified)	Mus musculus	%	64
CCN(CC)C(=S)Nn1c(-c2ccccc2)nc2ccccc2c1=O	Mus musculus	%	58
CC/C(C)=N/n1c(S)nc2sc3c(c2c1=O)CCCC3	Mus musculus	%	72

###

Below, each of the molecules is paired with its reported IC50 value.
tested on: CCRF-CEM; test: Anticancer activity against human CCRF-CEM cell assessed as cell growth inhibition measured after 120 hrs; type: functional, cell-based
MEASUREMENT_TYPE: IC50 (nM)

MOLECULE	RESULT_VALUE
COC(=O)CCC(NC(=O)c1ccc(NCc2ccc3nc(C)[nH]c(=O)c3c2Cl)s1)C(=O)OC (centres undefined)	2100
Nc1nc(O)c2c(Cl)c(CNc3ccc(C(=O)NC(CCC(=O)O)C(=O)O)cc3)ccc2n1 (centres undefined)	1800
COC(=O)CCC(NC(=O)c1ccc(N(C)Cc2ccc3nc(C)[nH]c(=O)c3c2)s1)C(=O)OC (centres undefined)	2100
COC(=O)CCC(NC(=O)c1ccc(NCc2ccc3nc(N)[nH]c(=O)c3c2Cl)s1)C(=O)OC (centres undefined)	2100

###

Entries with reported IC50 on Type-1 angiotensin II receptor A (Rattus norvegicus, UniProt P25095)
Sequence (P25095 whole entry): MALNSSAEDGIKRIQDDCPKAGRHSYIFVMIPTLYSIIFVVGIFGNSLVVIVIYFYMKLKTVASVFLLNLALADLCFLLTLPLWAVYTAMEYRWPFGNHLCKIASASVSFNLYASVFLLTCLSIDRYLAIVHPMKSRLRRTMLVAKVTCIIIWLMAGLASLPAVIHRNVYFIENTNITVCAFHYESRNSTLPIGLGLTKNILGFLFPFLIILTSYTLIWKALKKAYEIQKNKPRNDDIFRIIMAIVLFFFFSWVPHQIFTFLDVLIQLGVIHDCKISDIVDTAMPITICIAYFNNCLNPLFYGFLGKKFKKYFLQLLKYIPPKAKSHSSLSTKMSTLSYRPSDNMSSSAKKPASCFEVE

COMPOUND	INEQUALITY_OPERATOR	IC50 / µM
CCCCC1N(Cc2ccc(-c3ccccc3-c3nn[nH]n3)cc2)C(=O)c2ccccc2N1C (stereo not given)	=	14
CCCCc1nc2ccc(C(C)O)cc2c(=O)n1Cc1ccc(-c2ccccc2-c2nn[nH]n2)cc1 (stereo not given)	=	0.005
CCCCC1Nc2ccccc2C(=O)N1Cc1ccc(-c2ccccc2-c2nn[nH]n2)cc1 (stereo not given)	=	14
CCC1Nc2ccc(C(C)C)cc2C(=O)N1Cc1ccc(-c2ccccc2-c2nn[nH]n2)cc1 (stereo not given)	=	0.09
CCCCc1nc2ccc(C(CC)OC)cc2c(=O)n1Cc1ccc(-c2ccccc2-c2nn[nH]n2)cc1 (stereo not given)	=	0.018
CCCC1Nc2ccccc2C(=O)N1Cc1ccc(-c2ccccc2-c2nn[nH]n2)cc1 (stereo not given)	=	0.54
CCCCC1Nc2ccc(C(C)C)cc2C(=O)N1Cc1ccc(-c2ccccc2-c2nn[nH]n2)cc1 (stereo not given)	=	1.1
CCCCC(CCCC)C1Nc2ccccc2C(=O)N1Cc1ccc(-c2ccccc2-c2nnn[nH]2)cc1 (stereo not given)	=	12
CCCCc1nc2ccc(C(OC)c3ccccc3)cc2c(=O)n1Cc1ccc(-c2ccccc2-c2nn[nH]n2)cc1 (stereo not given)	>	1
CCCCc1nc2ccc(C(C)NC(C)=O)cc2c(=O)n1Cc1ccc(-c2ccccc2-c2nn[nH]n2)cc1 (stereo not given)	>	1
